Reference for the values: ChEMBL document CHEMBL5316338

biological target: Tyrosine-protein phosphatase non-receptor type 2 (Homo sapiens, UniProt P17706); experiment: Inhibition of recombinant human TC-PTP (1 to 314 residues) expressed in baculovirus infected insect cells using pNPP as substrate assessed as substrate hydrolysis
Sequence (P17706 whole entry, the tested form may be a part): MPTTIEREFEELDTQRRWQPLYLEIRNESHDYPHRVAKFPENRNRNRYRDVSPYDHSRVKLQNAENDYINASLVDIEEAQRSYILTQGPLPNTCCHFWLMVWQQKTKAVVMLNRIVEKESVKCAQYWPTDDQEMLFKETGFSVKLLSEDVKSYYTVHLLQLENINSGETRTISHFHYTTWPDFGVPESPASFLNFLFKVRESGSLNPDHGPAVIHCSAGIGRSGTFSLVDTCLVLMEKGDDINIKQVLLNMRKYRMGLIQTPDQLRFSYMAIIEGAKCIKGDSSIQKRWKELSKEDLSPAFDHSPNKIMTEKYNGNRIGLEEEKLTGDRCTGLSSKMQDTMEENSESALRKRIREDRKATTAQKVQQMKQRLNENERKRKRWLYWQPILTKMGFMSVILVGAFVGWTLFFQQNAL
pIC50: −log10 of the molar value. Square brackets hold non-standard residues; d marks the D form. Peptide text beside a SMILES is read from it. * marks the point of attachment. ξ: configuration not given here. C20 diacid = O=C(O)CCCCCCCCCCCCCCCCCCC(=O)*; ξR = N=C(N)NCCCC(N)C(=O)O
READOUT NAME: pIC50

For the compound CC[C@H](C)[C@H](NC(=O)CCCCCCCCCCCCCCCCCCC(=O)O)C(=O)N[C@@H](C)C(=O)N[C@@H](CCC(N)=O)C(=O)N[C@@H](CCC(=O)O)C(=O)N[C@@H](CC(C)C)C(=O)N[C@@H](CCCNC(=N)N)C(=O)NC(CCCNC(=N)N)C(=O)N[C@H](C(=O)NCC(=O)N[C@@H](CC(=O)O)C(=O)N[C@@H](CCC(=O)O)C(=O)N[C@@H](Cc1ccccc1)C(=O)O)[C@@H](C)CC (stereo partly specified) ({C20 diacid}-IAQELR[ξR]IGDEF-OH) , give its measured pIC50 value.
< 4.30

----------
Would you kindly list inhibition for each of these molecules?
Biological target: Tyrosine-protein phosphatase non-receptor type 1 (Homo sapiens) (UniProt P18031)
Sequence (whole entry): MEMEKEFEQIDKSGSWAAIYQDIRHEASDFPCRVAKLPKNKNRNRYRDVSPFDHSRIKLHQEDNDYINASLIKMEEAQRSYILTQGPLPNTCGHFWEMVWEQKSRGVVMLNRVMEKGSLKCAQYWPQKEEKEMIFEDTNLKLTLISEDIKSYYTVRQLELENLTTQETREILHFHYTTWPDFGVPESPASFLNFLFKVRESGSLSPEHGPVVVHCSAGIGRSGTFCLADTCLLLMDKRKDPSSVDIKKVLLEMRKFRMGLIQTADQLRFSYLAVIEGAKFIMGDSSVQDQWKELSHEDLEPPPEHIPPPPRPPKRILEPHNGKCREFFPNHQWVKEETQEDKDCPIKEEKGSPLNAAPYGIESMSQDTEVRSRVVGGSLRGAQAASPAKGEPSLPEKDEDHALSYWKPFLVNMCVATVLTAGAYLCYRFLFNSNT
Assay: Inhibition of N-terminal His tagged recombinant human PTP1B expressed in Escherichia coli using pNPP as substrate assessed as substrate hydrolysis at 40 umol/L relative to control
Details: dose 40.0 µmol/L
Numbered stars: 1 amine (or outer) side, 2 acyl side, 3 side chain; on linkers, the order of the positions; unused ones are H or OH. Square brackets hold non-standard residues; d marks the D form. Peptide text beside a SMILES is read from it. * marks the point of attachment. ξ: configuration not given here. C19 diacid = O=C(O)CCCCCCCCCCCCCCCCCC(=O)*; Adipoyl = O=C(CCCCC(=O)[*:2])[*:1]; Stearoyl = CCCCCCCCCCCCCCCCCC(=O)*; ξR = N=C(N)NCCCC(N)C(=O)O

CC[C@H](C)[C@H](NC(=O)CCCCC(=O)O)C(=O)N[C@@H](C)C(=O)N[C@@H](CCC(N)=O)C(=O)N[C@@H](CCC(=O)O)C(=O)N[C@@H](CC(C)C)C(=O)N[C@@H](CCCNC(=N)N)C(=O)N[C@@H](CCCNC(=N)N)C(=O)N[C@H](C(=O)NCC(=O)N[C@@H](CC(=O)O)C(=O)N[C@@H](CCC(=O)O)C(=O)N[C@@H](Cc1ccccc1)C(=O)O)[C@@H](C)CC (Adipoyl-IAQELRRIGDEF-OH) : < 50%
CCCCCCCCCCCCCCCCCC(=O)N[C@H](C(=O)N[C@@H](C)C(=O)N[C@@H](CCC(N)=O)C(=O)N[C@@H](CCC(=O)O)C(=O)N[C@@H](CC(C)C)C(=O)N[C@@H](CCCNC(=N)N)C(=O)NC(CCCNC(=N)N)C(=O)N[C@H](C(=O)NCC(=O)N[C@@H](CC(=O)O)C(=O)N[C@@H](CCC(=O)O)C(=O)N[C@@H](Cc1ccccc1)C(=O)O)[C@@H](C)CC)[C@@H](C)CC (stereo partly drawn) (Stearoyl-IAQELR[ξR]IGDEF-OH) : > 50%

For the molecule CC[C@H](C)[C@H](NC(=O)CCCCCCCCCCCCCCCCCC(=O)O)C(=O)N[C@@H](C)C(=O)N[C@@H](CCC(N)=O)C(=O)N[C@@H](CCC(=O)O)C(=O)N[C@@H](CC(C)C)C(=O)N[C@@H](CCCNC(=N)N)C(=O)NC(CCCNC(=N)N)C(=O)N[C@H](C(=O)NCC(=O)N[C@@H](CC(=O)O)C(=O)N[C@@H](CCC(=O)O)C(=O)N[C@@H](Cc1ccccc1)C(=O)O)[C@@H](C)CC (stereo partly drawn) ({C19 diacid}-IAQELR[ξR]IGDEF-OH) , give its measured inhibition value.
> 50%

----------
molecular target: Tyrosine-protein phosphatase non-receptor type 1 (Homo sapiens); test: Inhibition of N-terminal His tagged recombinant human PTP1B expressed in Escherichia coli using pNPP as substrate assessed as substrate hydrolysis at 40 umol/L relative to control; conditions: dose 40.0 µmol/L
Square brackets hold non-standard residues; d marks the D form. Peptide text beside a SMILES is read from it. * marks the point of attachment. ξ: configuration not given here. C22 diacid = O=C(O)CCCCCCCCCCCCCCCCCCCCC(=O)*; Pentadecanoyl = CCCCCCCCCCCCCCC(=O)*; C12 diacid = O=C(O)CCCCCCCCCCC(=O)*; ξR = N=C(N)NCCCC(N)C(=O)O; Butyryl = CCCC(=O)*
READOUT NAME: inhibition

These recorded examples may help you get a feel for the data.
CC[C@H](C)[C@H](NC(=O)CCCCCCCCCCCCCCCCCCCCC(=O)O)C(=O)N[C@@H](C)C(=O)N[C@@H](CCC(N)=O)C(=O)N[C@@H](CCC(=O)O)C(=O)N[C@@H](CC(C)C)C(=O)N[C@@H](CCCNC(=N)N)C(=O)NC(CCCNC(=N)N)C(=O)N[C@H](C(=O)NCC(=O)N[C@@H](CC(=O)O)C(=O)N[C@@H](CCC(=O)O)C(=O)N[C@@H](Cc1ccccc1)C(=O)O)[C@@H](C)CC (stereo not given in full) ({C22 diacid}-IAQELR[ξR]IGDEF-OH) : > 50%
CC[C@H](C)[C@H](NC(=O)CCCCCCCCC(=O)O)C(=O)N[C@@H](C)C(=O)N[C@@H](CCC(N)=O)C(=O)N[C@@H](CCC(=O)O)C(=O)N[C@@H](CC(C)C)C(=O)N[C@@H](CCCNC(=N)N)C(=O)N[C@@H](CCCNC(=N)N)C(=O)N[C@H](C(=O)NCC(=O)N[C@H](CC(=O)O)C(=O)N[C@@H](CCC(=O)O)C(=O)N[C@@H](Cc1ccccc1)C(=O)O)[C@@H](C)CC : < 50%
CCCC(=O)N[C@H](C(=O)N[C@@H](C)C(=O)N[C@@H](CCC(N)=O)C(=O)N[C@@H](CCC(=O)O)C(=O)N[C@@H](CC(C)C)C(=O)N[C@@H](CCCNC(=N)N)C(=O)N[C@@H](CCCNC(=N)N)C(=O)N[C@H](C(=O)NCC(=O)N[C@@H](CC(=O)O)C(=O)N[C@@H](CCC(=O)O)C(=O)N[C@@H](Cc1ccccc1)C(=O)O)[C@@H](C)CC)[C@@H](C)CC (Butyryl-IAQELRRIGDEF-OH) : < 50%

I would be grateful if you could provide inhibition for each of the following entries.
1. CC[C@H](C)[C@H](NC(=O)CCCCCCCCCCC(=O)O)C(=O)N[C@@H](C)C(=O)N[C@@H](CCC(N)=O)C(=O)N[C@@H](CCC(=O)O)C(=O)N[C@@H](CC(C)C)C(=O)N[C@@H](CCCNC(=N)N)C(=O)N[C@@H](CCCNC(=N)N)C(=O)N[C@H](C(=O)NCC(=O)N[C@@H](CC(=O)O)C(=O)N[C@@H](CCC(=O)O)C(=O)N[C@@H](Cc1ccccc1)C(=O)O)[C@@H](C)CC ({C12 diacid}-IAQELRRIGDEF-OH)
2. CCCCCCCCCCCCCCC(=O)N[C@H](C(=O)N[C@@H](C)C(=O)N[C@@H](CCC(N)=O)C(=O)N[C@@H](CCC(=O)O)C(=O)N[C@@H](CC(C)C)C(=O)N[C@@H](CCCNC(=N)N)C(=O)N[C@@H](CCCNC(=N)N)C(=O)N[C@H](C(=O)NCC(=O)N[C@@H](CC(=O)O)C(=O)N[C@@H](CCC(=O)O)C(=O)N[C@@H](Cc1ccccc1)C(=O)O)[C@@H](C)CC)[C@@H](C)CC (Pentadecanoyl-IAQELRRIGDEF-OH)

1. < 50%
2. > 50%

----------
species: Homo sapiens; assay: Selectivity index, ratio of IC50 for inhibition of recombinant human TC-PTP (1 to 314 residues) expressed in baculovirus infected insect cells to IC50 for inhibition of N-terminal His-tagged recombinant human PTP1B expressed in Escherichia coli
Square brackets hold non-standard residues; d marks the D form. Peptide text beside a SMILES is read from it. * marks the point of attachment. ξ: configuration not given here. C22 diacid = O=C(O)CCCCCCCCCCCCCCCCCCCCC(=O)*; C20 diacid = O=C(O)CCCCCCCCCCCCCCCCCCC(=O)*; C18 diacid = O=C(O)CCCCCCCCCCCCCCCCC(=O)*; Stearoyl = CCCCCCCCCCCCCCCCCC(=O)*; Myristoyl = CCCCCCCCCCCCCC(=O)*; ξR = N=C(N)NCCCC(N)C(=O)O
Would you kindly list Ratio IC50 for each of these molecules?

These recorded examples may help you get a feel for the data.
CC[C@H](C)[C@H](NC(=O)CCCCCCCCCCCCCCCCC(=O)O)C(=O)N[C@@H](C)C(=O)N[C@@H](CCC(N)=O)C(=O)N[C@@H](CCC(=O)O)C(=O)N[C@@H](CC(C)C)C(=O)N[C@@H](CCCNC(=N)N)C(=O)NC(CCCNC(=N)N)C(=O)N[C@H](C(=O)NCC(=O)N[C@@H](CC(=O)O)C(=O)N[C@@H](CCC(=O)O)C(=O)N[C@@H](Cc1ccccc1)C(=O)O)[C@@H](C)CC (stereo not given in full) ({C18 diacid}-IAQELR[ξR]IGDEF-OH) : > 130
CC[C@H](C)[C@H](NC(=O)CCCCCCCCCCCCCCCCCCCCC(=O)O)C(=O)N[C@@H](C)C(=O)N[C@@H](CCC(N)=O)C(=O)N[C@@H](CCC(=O)O)C(=O)N[C@@H](CC(C)C)C(=O)N[C@@H](CCCNC(=N)N)C(=O)NC(CCCNC(=N)N)C(=O)N[C@H](C(=O)NCC(=O)N[C@@H](CC(=O)O)C(=O)N[C@@H](CCC(=O)O)C(=O)N[C@@H](Cc1ccccc1)C(=O)O)[C@@H](C)CC (stereo not given in full) ({C22 diacid}-IAQELR[ξR]IGDEF-OH) : > 250
CC[C@H](C)[C@H](NC(=O)CCCCCCCCCCCCCCCCCCC(=O)O)C(=O)N[C@@H](C)C(=O)N[C@@H](CCC(N)=O)C(=O)N[C@@H](CCC(=O)O)C(=O)N[C@@H](CC(C)C)C(=O)N[C@@H](CCCNC(=N)N)C(=O)NC(CCCNC(=N)N)C(=O)N[C@H](C(=O)NCC(=O)N[C@@H](CC(=O)O)C(=O)N[C@@H](CCC(=O)O)C(=O)N[C@@H](Cc1ccccc1)C(=O)O)[C@@H](C)CC (stereo not given in full) ({C20 diacid}-IAQELR[ξR]IGDEF-OH) : > 113
CCCCCCCCCCCCCC(=O)N[C@H](C(=O)N[C@@H](C)C(=O)N[C@@H](CCC(N)=O)C(=O)N[C@@H](CCC(=O)O)C(=O)N[C@@H](CC(C)C)C(=O)N[C@@H](CCCNC(=N)N)C(=O)NC(CCCNC(=N)N)C(=O)N[C@H](C(=O)NCC(=O)N[C@@H](CC(=O)O)C(=O)N[C@@H](CCC(=O)O)C(=O)N[C@@H](Cc1ccccc1)C(=O)O)[C@@H](C)CC)[C@@H](C)CC (stereo not given in full) (Myristoyl-IAQELR[ξR]IGDEF-OH) : > 190

With those in mind, consider the next molecule.
For the molecule CCCCCCCCCCCCCCCCCC(=O)N[C@H](C(=O)N[C@@H](C)C(=O)N[C@@H](CCC(N)=O)C(=O)N[C@@H](CCC(=O)O)C(=O)N[C@@H](CC(C)C)C(=O)N[C@@H](CCCNC(=N)N)C(=O)NC(CCCNC(=N)N)C(=O)N[C@H](C(=O)NCC(=O)N[C@@H](CC(=O)O)C(=O)N[C@@H](CCC(=O)O)C(=O)N[C@@H](Cc1ccccc1)C(=O)O)[C@@H](C)CC)[C@@H](C)CC (stereo not given in full) (Stearoyl-IAQELR[ξR]IGDEF-OH) , give its measured Ratio IC50 value.
113
